Origin of measurements: patent US20260069689A1

Readings of kon for the listed binders
- measured target: T1, SARS-CoV2 Spike ecto foldon Trimer expressed with a C-terminal myc-myc-hexahistidine (SARS-CoV-2, UniProt P0DTC2 14-1213)
- T1 construct: extracellular domain
- protocol description: SPR Biacore, mAb captured by anti-hFc, 37C
I only need the number, in M⁻¹ s⁻¹, no unit after it.

mAb15159 (antibody, V domains shown) VH: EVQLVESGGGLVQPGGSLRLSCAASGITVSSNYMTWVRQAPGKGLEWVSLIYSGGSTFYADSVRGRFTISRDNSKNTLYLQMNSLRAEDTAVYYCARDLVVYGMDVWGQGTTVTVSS VL: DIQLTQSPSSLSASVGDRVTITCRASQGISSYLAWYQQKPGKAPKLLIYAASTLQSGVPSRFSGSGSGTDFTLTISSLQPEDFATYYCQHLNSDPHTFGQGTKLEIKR = 467000
mAb14315 (antibody, V domains shown) VH: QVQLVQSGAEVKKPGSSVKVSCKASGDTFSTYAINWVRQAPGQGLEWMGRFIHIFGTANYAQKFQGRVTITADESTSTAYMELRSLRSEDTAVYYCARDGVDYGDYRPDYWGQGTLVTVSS VL: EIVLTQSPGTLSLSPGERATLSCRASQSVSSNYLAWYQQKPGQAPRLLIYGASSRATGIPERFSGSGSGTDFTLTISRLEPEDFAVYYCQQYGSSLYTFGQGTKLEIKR = 743000
mAb15150 (antibody, V domains shown) VH: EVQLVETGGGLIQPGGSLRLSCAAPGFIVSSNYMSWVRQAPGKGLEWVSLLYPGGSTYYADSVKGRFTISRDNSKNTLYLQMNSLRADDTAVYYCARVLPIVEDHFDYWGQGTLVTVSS VL: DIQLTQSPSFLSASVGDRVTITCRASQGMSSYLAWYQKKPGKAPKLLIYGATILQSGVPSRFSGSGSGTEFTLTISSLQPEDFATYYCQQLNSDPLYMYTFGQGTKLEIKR = 1.68e+06
mAb15165 (antibody, V domains shown) VH: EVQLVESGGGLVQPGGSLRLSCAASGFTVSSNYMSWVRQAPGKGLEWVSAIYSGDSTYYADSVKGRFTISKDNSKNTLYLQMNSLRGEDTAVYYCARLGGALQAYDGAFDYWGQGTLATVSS VL: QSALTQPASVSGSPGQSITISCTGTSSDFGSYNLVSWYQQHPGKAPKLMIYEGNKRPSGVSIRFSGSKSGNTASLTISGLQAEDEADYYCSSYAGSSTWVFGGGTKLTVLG = 2.12e+06

Continue with the next binder.
Entry mAb15170 (antibody, V domains shown) VH: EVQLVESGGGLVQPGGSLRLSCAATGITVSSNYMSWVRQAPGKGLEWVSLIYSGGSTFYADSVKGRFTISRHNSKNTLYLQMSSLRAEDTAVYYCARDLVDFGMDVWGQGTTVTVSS VL: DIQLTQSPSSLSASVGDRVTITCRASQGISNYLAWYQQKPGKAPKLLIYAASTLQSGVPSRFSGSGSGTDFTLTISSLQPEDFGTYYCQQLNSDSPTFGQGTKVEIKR has what kon?
846000
